Recorded pKi by entry
- assay target: Cholinesterase (Equus caballus, UniProt P81908)
- Sequence (P81908 whole entry): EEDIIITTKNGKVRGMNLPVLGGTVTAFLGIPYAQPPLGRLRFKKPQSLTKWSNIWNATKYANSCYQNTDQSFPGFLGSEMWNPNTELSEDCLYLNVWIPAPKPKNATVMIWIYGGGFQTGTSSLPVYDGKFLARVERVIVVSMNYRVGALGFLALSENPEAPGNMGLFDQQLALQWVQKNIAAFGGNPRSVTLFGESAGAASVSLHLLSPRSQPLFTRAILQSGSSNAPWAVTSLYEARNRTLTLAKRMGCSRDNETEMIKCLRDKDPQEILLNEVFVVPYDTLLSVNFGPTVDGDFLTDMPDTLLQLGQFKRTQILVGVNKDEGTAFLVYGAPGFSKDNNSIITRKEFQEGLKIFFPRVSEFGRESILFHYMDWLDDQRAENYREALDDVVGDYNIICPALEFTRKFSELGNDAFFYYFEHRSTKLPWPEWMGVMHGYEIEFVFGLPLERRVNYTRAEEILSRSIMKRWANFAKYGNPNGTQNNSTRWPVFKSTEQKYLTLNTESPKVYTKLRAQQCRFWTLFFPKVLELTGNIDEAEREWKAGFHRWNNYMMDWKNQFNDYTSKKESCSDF
- method description: Inhibition of Equus caballus (horse) serum butyrylcholinesterase (BChE) assessed as inhibition of BTCh hydrolysis by Ellman method
- measurement setup: read-out: Ki
Where a name gives a salt, the structure may show the parent alone.
When answering, recall that pKi equals minus log10 of the concentration in mol/L, and write that number alone.

Here is how some compounds turned out for pKi.
compound: CC[C@H](C)C(=O)O[C@H]1C[C@@H](C)C=C2C=C[C@H](C)[C@H](CC[C@@H]3C[C@@H](O)CC(=O)O3)[C@H]21 [LOVASTATIN]
pKi: 5.96
--
compound: NNc1nncc2ccccc12 [HYDRALAZINE HYDROCHLORIDE]
pKi: 5.72
--
compound: CCC(C)(C)C(=O)O[C@H]1C[C@@H](C)C=C2C=C[C@H](C)[C@H](CC[C@@H]3C[C@@H](O)CC(=O)O3)[C@H]21 [SIMVASTATIN]
pKi: 6.12

Please examine the following record next.
**Query** Find pKi for COC(=O)C1=C(C)NC(C)=C(C(=O)OC)C1c1ccccc1[N+](=O)[O-] [NIFEDIPINE] on Cholinesterase (Equus caballus, UniProt P81908) and write it down.
**Result** 5.92

* * *

- assay target: Acetylcholinesterase (Electrophorus electricus)
- Sequence (O42275 whole entry): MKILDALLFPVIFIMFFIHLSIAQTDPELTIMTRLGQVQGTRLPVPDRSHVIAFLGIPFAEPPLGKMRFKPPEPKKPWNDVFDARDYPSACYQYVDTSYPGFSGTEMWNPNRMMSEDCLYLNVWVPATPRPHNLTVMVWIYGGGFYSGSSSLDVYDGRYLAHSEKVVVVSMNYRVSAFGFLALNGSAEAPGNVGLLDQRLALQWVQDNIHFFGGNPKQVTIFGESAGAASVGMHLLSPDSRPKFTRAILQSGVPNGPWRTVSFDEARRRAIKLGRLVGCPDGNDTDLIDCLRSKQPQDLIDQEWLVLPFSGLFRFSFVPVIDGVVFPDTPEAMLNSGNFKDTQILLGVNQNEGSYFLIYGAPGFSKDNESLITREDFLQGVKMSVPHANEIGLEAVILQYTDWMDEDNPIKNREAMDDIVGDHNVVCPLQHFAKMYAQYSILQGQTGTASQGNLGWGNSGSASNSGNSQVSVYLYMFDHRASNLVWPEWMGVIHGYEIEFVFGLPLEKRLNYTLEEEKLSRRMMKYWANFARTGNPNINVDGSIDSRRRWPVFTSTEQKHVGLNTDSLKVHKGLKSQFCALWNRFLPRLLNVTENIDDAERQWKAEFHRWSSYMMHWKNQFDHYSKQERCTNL
- method description: Inhibition of Electrophorus electricus (electric eel) acetylcholinesterase (AChE) assessed as inhibition of ATCh hydrolysis by Ellman method
- measurement setup: read-out: Ki
Counter-ions that a name gives are not always drawn.
quantity kind: pKi
When answering, recall that pKi equals minus log10 of the concentration in mol/L, and write that number alone.

Here is how some molecules turned out for pKi.
molecule: NNc1nncc2ccccc12 [HYDRALAZINE HYDROCHLORIDE]
measured: 5.15

molecule: CN1C(=O)CN=C(c2ccccc2)c2cc(Cl)ccc21
measured: 4.89

**Query** Item COC(=O)C1=C(C)NC(C)=C(C(=O)OC)C1c1ccccc1[N+](=O)[O-] : provide pKi
**Result** 5.40

**Query** Item CC[C@H](C)C(=O)O[C@H]1C[C@@H](C)C=C2C=C[C@H](C)[C@H](CC[C@@H]3C[C@@H](O)CC(=O)O3)[C@H]21 : provide pKi
**Result** 5.57

**Query** Item CCC(C)(C)C(=O)O[C@H]1C[C@@H](C)C=C2C=C[C@H](C)[C@H](CC[C@@H]3C[C@@H](O)CC(=O)O3)[C@H]21 : provide pKi
**Result** 5.74
